Origin of the recorded values: patent US9067974B2

System: A. baumannii ATCC 19606
assay_text: Sensitization to rifampin: well diffusion growth inhibition on LB plates containing rifampin
Type: cell-based, Acinetobacter baumannii
conditions: 4 μg of compound, rifampin 0.1 μg/ml
reported_endpoint: Antibacterial activity in the presence of rifampin (growth inhibition area around a well) (square millimeters)
Form entry: value (square millimeters) — number only.

> print(dat)
                                  substance  test.value
1  OA-Thr-Abu-cy[Dab-Dab-DPhe-Leu-Dab-Dab-Leu-] [NAB 719]         154
2  DA-Thr-Abu-cy[Dab-Dab-DPhe-Leu-Dab-Dab-Thr-] [NAB 7062]          50

Query: Given the substance OA-Thr-DAla-cy[Dab-Dab-DPhe-Thr-Dab-Dab-Thr-] [NAB 738] , what is its reported Antibacterial activity in the presence of rifampin (growth inhibition area around a well)?
Reply: 95

Query: Need Antibacterial activity in the presence of rifampin (growth inhibition area around a well) of DA-Thr-DSer-cy[Dab-Dab-DPhe-Leu-Dab-Dab-Thr-] [NAB 740] , thanks.
Reply: 154

Query: Need Antibacterial activity in the presence of rifampin (growth inhibition area around a well) of OA-Thr-Dab-cy[Dab-Dab-DPhe-Leu-Dab-Abu-Thr-] [NAB 717] , thanks.
Reply: 0

====

Tested on: E. coli IH3080 (K1:O18)
assay_text: Well diffusion growth inhibition on LB agar plates (direct antibacterial activity)
Assay type: cell-based, Escherichia coli
conditions: 10 μg of compound per well
Below, each of the substances is paired with its reported Antibacterial activity (growth inhibition area around a well) value.
Quick note: give the figure in square millimeters, leave out the unit.

> print(dat)
                                  substance  test.value
1  MHA-Thr-Abu-cy[Dab-Dab-DPhe-Leu-Dab-Dab-Thr-] [NAB 706]           7
2  MO(H)A-XTX-cy[XXFLXXT], SEQ ID NO:1; commercially available polymyxin B is a mixture [reference compound]         133
3  DA-Thr-DSer-cy[Dab-Dab-DPhe-Leu-Dab-Dab-Thr-] [NAB 740]         133
4  OA-Thr-DAla-cy[Dab-Dab-DPhe-Thr-Dab-Dab-Thr-] [NAB 738]          64
5  OA-Thr-Abu-cy[Dab-Lys-DPhe-Leu-Dab-Dab-Thr-] [NAB 731]           0

Let's switch to this substance now.
Query: What value of Antibacterial activity (growth inhibition area around a well) has been reported for the following substance? OA-Abu-cy[Dab-Dab-DPhe-Leu-Dab-Dab-Thr-] [NAB 713]
Reply: 0

====

Tested on: E. coli IH3080
assay_text: Sensitization to rifampin: well diffusion growth inhibition on LB plates containing rifampin
Assay type: cell-based, Escherichia coli
conditions: 4 μg of compound, rifampin 0 μg/ml
Antibacterial activity in the presence of rifampin (growth inhibition area around a well) by entry:
Only the number, expressed in square millimeters, is required.

Query: Recorded Antibacterial activity in the presence of rifampin (growth inhibition area around a well) of OA-Thr-Abu-cy[Dab-Lys-DPhe-Leu-Dab-Dab-Thr-] [NAB 731] , please.
Reply: 0

Query: Returns the measured Antibacterial activity in the presence of rifampin (growth inhibition area around a well) for the input substance. Input: OA-Abu-cy[Dab-Dab-DPhe-Leu-Dab-Dab-Thr-] [NAB 713]
Reply: 0

Query: # lookup: Antibacterial activity in the presence of rifampin (growth inhibition area around a well) of MO(H)A-XTX-cy[XXFLXXT], SEQ ID NO:1; commercially available polymyxin B is a mixture [reference compound]
Reply: 79

====

Tested on: A. baumannii ATCC 19606
assay_text: Sensitization to rifampin: well diffusion growth inhibition on LB plates containing rifampin
Assay type: cell-based, Acinetobacter baumannii
conditions: 4 μg of compound, rifampin 0 μg/ml
reported_endpoint: Antibacterial activity in the presence of rifampin (growth inhibition area around a well)
# output: numeric value plus its unit

> print(dat)
                                  substance      experimental.system            test.value
1  OA-Thr-DAla-cy[Dab-Dab-DPhe-Thr-Dab-Dab-Thr-] [NAB 738]  A. baumannii ATCC 19606  0 square millimeters

Query: Using the record for OA-Thr-Dab-cy[Dab-Dab-DPhe-Leu-Dab-Abu-Thr-] [NAB 717] , report its Antibacterial activity in the presence of rifampin (growth inhibition area around a well).
Reply: 0 square millimeters

Query: Which value of Antibacterial activity in the presence of rifampin (growth inhibition area around a well) has been reported for DA-Thr-DSer-cy[Dab-Dab-DPhe-Leu-Dab-Dab-Thr-] [NAB 740] in the records?
Reply: 133 square millimeters

Query: Look up Antibacterial activity in the presence of rifampin (growth inhibition area around a well): OA-Thr-Abu-cy[Dab-Dab-DPhe-Leu-Dab-Dab-Leu-] [NAB 719]
Reply: 0 square millimeters

====

Test system: A. baumannii ATCC 19606
assay_text: Sensitization to rifampin: well diffusion growth inhibition on LB plates containing rifampin
Type: cell-based, Acinetobacter baumannii
conditions: 4 μg of compound, rifampin 0.1 μg/ml
This section presents substances with their documented Antibacterial activity in the presence of rifampin (growth inhibition area around a well) values.
Your answer should be a plain number; it is taken to be in square millimeters.

Guide cases for Antibacterial activity in the presence of rifampin (growth inhibition area around a well), answers given:
> print(dat)
                                  substance  test.value
1  OA-Thr-DThr-cy[Dab-Dab-DPhe-Thr-Dab-Dab-Thr-] [NAB 737]         201
2  OA-Thr-DSer-cy[Dab-Dab-DPhe-Leu-Dab-Dab-Thr-] [NAB 739]         177
3  OA-Thr-DSer-cy[Dab-Dab-DPhe-Thr-Dab-Dab-Thr-] [NAB 734]         201
4  DA-cy[Dab-Dab-DPhe-Leu-Dab-Dab-Thr-] [NAB 736]          95
5  OA-Thr-Dab-cy[Dab-Dab-DPhe-Leu-Abu-Dab-Thr-] [NAB 716]           0

Query: # get_value(readout='Antibacterial activity in the presence of rifampin (growth inhibition area around a well)', item= OA-Thr-Abu-cy[Dab-Dab-DLeu-Leu-Dab-Dab-Thr-] [NAB 718] )
Reply: 0

====

System: E. coli IH3080 (K1:O18)
assay_text: Well diffusion growth inhibition on LB agar plates (direct antibacterial activity)
Format: cell-based, Escherichia coli
conditions: 10 μg of compound per well
The entries below come with measured Antibacterial activity (growth inhibition area around a well) values attached.
Just the number please, in square millimeters, no unit attached.

Use these answered entries as a reference point.
> print(dat)
                                  substance  test.value
1  MHA-Dab-Thr-Dab-cy[Dab-Dab-DPhe-Leu-Abu-Abu-Thr-] [NAB 721]           0
2  OA-Thr-Dab-cy[Dab-Abu-DPhe-Leu-Dab-Dab-Thr-] [NAB 715]           0
3  OA-Thr-Dab-cy[Dab-Dab-DPhe-Leu-Abu-Dab-Thr-] [NAB 716]          64
4  DA-Thr-Abu-cy[Dab-Dab-DPhe-Leu-Dab-Dab-Thr-] [NAB 7062]          99
5  OA-Thr-Dab-cy[Dab-Dab-DPhe-Leu-Dab-Abu-Thr-] [NAB 717]           0

Query: Please look up its Antibacterial activity (growth inhibition area around a well): DA-cy[Dab-Dab-DPhe-Leu-Dab-Dab-Thr-] [NAB 736]
Reply: 0

Query: Record request: Antibacterial activity (growth inhibition area around a well) value, item OA-Thr-Abu-cy[Dab-Abu-DPhe-Leu-Dab-Dab-Thr-] [NAB 710]
Reply: 7

Query: Query (substance): OA-Thr-DSer-cy[Dab-Dab-DPhe-Leu-Dab-Dab-Thr-] [NAB 739] ; field requested: Antibacterial activity (growth inhibition area around a well)
Reply: 177

Query: Which Antibacterial activity (growth inhibition area around a well) is reported for this substance? OA-Thr-Abu-cy[Dab-Dab-DPhe-Leu-Dab-Dab-Leu-] [NAB 719]
Reply: 50

Query: Return reported Antibacterial activity (growth inhibition area around a well); argument: MHA-Abu-Thr-Abu-cy[Dab-Dab-DPhe-Leu-Dab-Dab-Thr-] [NAB 707]
Reply: 7

Query: Suppose we examine the substance OA-Thr-Abu-cy[Dab-Dab-DPhe-Leu-Dab-Abu-Thr-] [NAB 709] ; what Antibacterial activity (growth inhibition area around a well) value has been reported?
Reply: 0

Query: Which measured Antibacterial activity (growth inhibition area around a well) value corresponds to OA-Thr-Abu-cy[Dab-Dab-DLeu-Leu-Dab-Dab-Thr-] [NAB 718] ?
Reply: 0

Query: # get_value(readout='Antibacterial activity (growth inhibition area around a well)', item= OA-Thr-DThr-cy[Dab-Dab-DPhe-Thr-Dab-Dab-Thr-] [NAB 737] )
Reply: 201

Query: Consider the substance shown here: OA-DAla-DAla-cy[Dab-Dab-DPhe-Leu-Dab-Dab-Thr-] [NAB 733] What is its recorded Antibacterial activity (growth inhibition area around a well)?
Reply: 0
